Numbers sourced from PubChem BioAssay (NCI).

# Tested on: UACC-257 melanoma
# procedure_text: NCI tumour cell line growth inhibition, 48 h; in the data active = GI50 below about 0.43 µM; inactive = the rest
Outcome codes: 1 = active, 0 = inactive

{"columns": ["compound", "class_assignment"],
 "data": [
  ["COc1ccc2[nH]c(-c3cccc(N(C)C)c3)cc(=O)c2c1", 1],
  ["COc1ccc(NC(=O)c2sc3nc(C)c(C(O)c4ccc(OC)cc4)cc3c2N)cc1 (stereo unspecified)", 0],
  ["C[C@@H]1CC[C@H]2C(COC/C=C/COCC3=C(C(F)(F)F)O[C@@H]4O[C@@]5(C)CC[C@H]6[C@H](C)CC[C@@H]3[C@@]46OO5)=C(C(F)(F)F)O[C@@H]3O[C@@]4(C)CC[C@@H]1[C@]32OO4", 1],
  ["COc1cc(C2CC(c3ccc4c(c3)OCO4)=NN2C(C)=O)cc(OC)c1OC (stereo unspecified)", 0],
  ["O=C(Nc1cccc(C(F)(F)F)c1)c1cccc(NC2=C(Cl)C(=O)N(Cc3ccccc3)C2=O)c1", 0],
  ["CN(C)CCOC1(Cc2ccc(Cl)cc2Cl)CCC(C(C)(C)C)CC1 (stereo unspecified)", 0],
  ["BrC(Br)(Br)c1cnc2ccccc2n1", 0],
  ["C=CC[Se]C(=O)Cc1c(C)n(C(=O)c2ccc(Cl)cc2)c2ccc(OC)cc12", 0],
  ["N=C(N)c1ccc(-c2ccc(-c3ccc(Cl)cn3)s2)cc1", 0],
  ["CCOC(=O)c1cc2cc(NC(=O)c3cc4cc([N+](=O)[O-])ccc4n3C)ccc2n1C", 0],
  ["CCCCN(CCCC)CC(C)(C)C(O)c1ccc(OC)c2ccccc12 (stereo unspecified)", 0]
]}

* * *

// values below are reported GI50
# System: SF-295 CNS
# procedure_text: NCI tumour cell line growth inhibition, 48 h
readout_type: GI50

{"columns": ["compound", "tested_on", "value_reported"],
 "data": [
  ["O=C(O)c1ccc(-c2ccc(C(=O)O)cc2I)c(I)c1", "SF-295 CNS", "> 100 µM"],
  ["O=C(NCCCNC(=O)OCc1ccc2c(Br)cc(Br)c(O)c2n1)OCc1ccc2c(Br)cc(Br)c(O)c2n1", "SF-295 CNS", "> 100 µM"],
  ["CN(C)CCOc1nc2c3cccnc3cc(-c3cccc(Cl)c3)c2c2ncccc12", "SF-295 CNS", "1.13 µM"],
  ["Cc1ccc2[nH]c(C(=O)NN3C(=O)CSC34CCCC(C)C4)c(-c3ccccc3)c2c1 (stereo not drawn)", "SF-295 CNS", "17.2 µM"],
  ["CCN(Cc1nc2cc(C(F)(F)F)ccc2nc1-c1ccccc1)c1ccc(OC)c(OC)c1", "SF-295 CNS", "15.7 µM"],
  ["C[C@@]1(c2ncncc2F)NC(=O)c2cc(-c3cn[nH]c3)ccc21", "SF-295 CNS", "29.4 µM"],
  ["CC(C)=CCC/C(C)=C/CC/C(=C/COP(=O)(OCc1ccc([N+](=O)[O-])o1)N(C)CCCCCl)CC=C(C)C (stereo not drawn)", "SF-295 CNS", "7.14 µM"],
  ["CCCC(=O)NC(c1ccc2c(c1)OCO2)c1ccc2cccnc2c1O (stereo not drawn)", "SF-295 CNS", "0.728 µM"],
  ["Oc1ccc(Br)cc1/C=N/NC(=S)NC12CC3CC(CC(C3)C1)C2", "SF-295 CNS", "2.6 µM"],
  ["CCOC(=O)c1cc2cc(NC(=O)c3cc4cc([N+](=O)[O-])ccc4n3C)ccc2n1C", "SF-295 CNS", "30.1 µM"],
  ["NC(N)=N/N=C/c1cccc(Cl)c1Cl", "SF-295 CNS", "2.83 µM"],
  ["O=C(c1ccco1)c1c(C(F)(F)F)nc2cc(C(F)(F)F)ccc2[n+]1[O-]", "SF-295 CNS", "17.5 µM"],
  ["BrC(Br)(Br)c1cnc2ccccc2n1", "SF-295 CNS", "3.75 µM"]
]}
